Molecular target: T1, Human PTGFRN-ECD (extracellular domain; amino-acid 26 to amino-acid Y at 832), His-tag protein (human, UniProt Q9P2B2 26-832)
T1 construct: range 26-832; Expressed in Hek-293 cells, purified on a nickel column; also called recombinant PTGFRN; not shown: His-tag
T1 sequence (looked up): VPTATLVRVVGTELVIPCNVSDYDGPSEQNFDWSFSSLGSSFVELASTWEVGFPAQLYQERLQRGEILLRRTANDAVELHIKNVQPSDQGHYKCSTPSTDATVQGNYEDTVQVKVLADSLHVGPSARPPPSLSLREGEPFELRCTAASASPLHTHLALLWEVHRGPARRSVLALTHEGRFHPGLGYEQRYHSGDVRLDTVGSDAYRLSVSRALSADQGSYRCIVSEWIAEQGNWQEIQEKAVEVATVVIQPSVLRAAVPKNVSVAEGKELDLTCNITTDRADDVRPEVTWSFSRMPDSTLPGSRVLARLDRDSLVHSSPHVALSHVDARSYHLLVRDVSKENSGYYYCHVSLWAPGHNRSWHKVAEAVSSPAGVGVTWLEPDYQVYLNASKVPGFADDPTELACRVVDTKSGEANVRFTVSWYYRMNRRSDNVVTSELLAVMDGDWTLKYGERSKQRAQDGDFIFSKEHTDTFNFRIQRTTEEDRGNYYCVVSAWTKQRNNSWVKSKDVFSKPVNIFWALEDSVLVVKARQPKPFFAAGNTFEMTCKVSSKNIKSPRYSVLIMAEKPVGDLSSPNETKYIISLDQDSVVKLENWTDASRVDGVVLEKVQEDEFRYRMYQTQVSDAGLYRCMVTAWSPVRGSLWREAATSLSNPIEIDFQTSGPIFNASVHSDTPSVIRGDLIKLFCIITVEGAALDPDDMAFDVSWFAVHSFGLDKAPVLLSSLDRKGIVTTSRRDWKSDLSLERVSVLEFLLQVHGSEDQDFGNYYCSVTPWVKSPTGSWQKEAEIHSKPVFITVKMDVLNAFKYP
Assay: Octet Red96 pairing (binning matrix) on PTGFRN-ECD; capture Ab (1st loading Ab): 33B7
Catalogue of Octet pairing response values
Write no unit; give the number alone.

Q: Any idea what its Octet pairing response is? The binder is 10D9 (antibody, V domains shown, Mouse hybridoma mAb) VH: DVQLQESGPGLVKPSQSLSLTCSVTGCSITSGYDWNWIRQFPGNKLEWMGYINYDGNSNYIPSLKNRVSITRDTSKNQFFLKLNSVTTEDTATYYCARSDGYYWYFDVWGTGTTVTVSS VL: DIKMTQSPSSMYASLGERVTITCKASQDIKSYLSWYQQKPWKSPKTLIYYATSLADGVPSRFSASGSGQDYSLTISSLESDDTATYYCLQHAERPLTFGAGTKLELK
Result: 0.236

Q: Any idea what its Octet pairing response is? The binder is 2B12 (antibody, V domains shown, Mouse hybridoma mAb) VH: QVQLQQPGAELVKPGASVKMSCKASGYTFTSYWITWVKQGPGQGLEWIGDIYPGSGNTNYNEKFKSKATLTVDTSSSTAYMQLSSLTSEDSAVYYCARFFILTSYYFDYWGQGTTLTVSS VL: GIVMTQSQKFMSTTVGDRVSITCKASQNVGTAVAWFQQKPGQSPKLLIYLASNRYTGVPDRFTGSGSGTDFTLTISNMQSEDLADYFCQQYSNYPLTFGAGTKLELK
Result: 0.132
